Biological target: 5-hydroxytryptamine receptor 2A (Homo sapiens, UniProt P28223)
Sequence (P28223 whole entry): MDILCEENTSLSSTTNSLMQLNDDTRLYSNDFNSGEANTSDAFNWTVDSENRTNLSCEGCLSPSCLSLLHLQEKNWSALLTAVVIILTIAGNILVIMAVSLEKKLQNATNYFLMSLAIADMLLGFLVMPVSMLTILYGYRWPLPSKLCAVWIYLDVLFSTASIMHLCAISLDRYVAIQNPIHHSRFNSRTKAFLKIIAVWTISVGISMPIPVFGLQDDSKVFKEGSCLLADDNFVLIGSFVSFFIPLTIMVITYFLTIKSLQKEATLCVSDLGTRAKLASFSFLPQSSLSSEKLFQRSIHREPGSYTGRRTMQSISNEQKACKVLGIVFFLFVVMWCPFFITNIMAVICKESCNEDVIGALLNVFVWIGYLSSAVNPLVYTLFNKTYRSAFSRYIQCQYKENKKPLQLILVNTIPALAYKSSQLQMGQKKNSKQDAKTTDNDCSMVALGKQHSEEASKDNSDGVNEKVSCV
Assay: Displacement of [3H]ketanserin from 5HT2A receptor expressed in HEK293 cells by liquid scintillation spectrophotometry
Format: cell-based
Conditions: read-out: pKi (converted)
Where a name gives a salt, the structure may show the parent alone.
REPORTED ENDPOINT: Ki (nM)

Some entries whose results are on file:
[
  {
    "COMPOUND": "CCN(CC)CCOC(=O)[C@H](Cc1cccc2ccccc12)C[C@@H]1CCCO1",
    "REPORTED ENDPOINT": "Ki",
    "VAL": 1700
  },
  {
    "COMPOUND": "CCN(CC)CCOC(=O)[C@@H](Cc1cccc2ccccc12)C[C@H]1CCCO1",
    "REPORTED ENDPOINT": "Ki",
    "VAL": 145
  },
  {
    "COMPOUND": "CCN(CC)CCOC(=O)[C@@H](Cc1cccc2ccccc12)C[C@@H]1CCCO1",
    "REPORTED ENDPOINT": "Ki",
    "VAL": 282
  }
]

a: CCN(CC)CCOC(=O)C(Cc1cccc2ccccc12)CC1CCCO1 (stereo not given) [NAFRONYL OXALATE]
b: CCN(CC)CCOC(=O)[C@H](Cc1cccc2ccccc12)C[C@H]1CCCO1
Given the listed records, identify the one among a and b with higher Ki. Give the chosen item's label as your response.
b
